- target_or_test_system: T1, TNFR1 (Homo sapiens, UniProt P19438)
- T1 chain: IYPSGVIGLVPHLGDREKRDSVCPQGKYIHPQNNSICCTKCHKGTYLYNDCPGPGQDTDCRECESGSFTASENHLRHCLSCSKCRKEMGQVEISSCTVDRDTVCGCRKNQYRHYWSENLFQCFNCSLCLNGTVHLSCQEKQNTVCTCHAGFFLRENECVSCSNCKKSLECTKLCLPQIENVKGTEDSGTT
- test_details: yeast display SC50
Listed binders paired with reported apparent Kd (screen)

Below: 4 binders and their reported apparent Kd (screen).
K69C (designed binder) SMEEEVEKAAKEYEKKKKEAIEKHLEKLKAKDKEAAERFLKELEEAAKEYAKDEAKTMSEEEAKRRAKCYKEKVLLSELSEEEQKEIKEAEEKLVRTILKYVEEAAK = 2.48 nM
E81F (designed binder) SMEEEVEKAAKEYEKKKKEAIEKHLEKLKAKDKEAAERFLKELEEAAKEYAKDEAKTMSEEEAKRRAKKYKEKVLLSELSFEEQKEIKEAEEKLVRTILKYVEEAAK = 0.593 nM
E62G (designed binder) SMEEEVEKAAKEYEKKKKEAIEKHLEKLKAKDKEAAERFLKELEEAAKEYAKDEAKTMSEEGAKRRAKKYKEKVLLSELSEEEQKEIKEAEEKLVRTILKYVEEAAK = 2.25 nM
E91F (designed binder) SMEEEVEKAAKEYEKKKKEAIEKHLEKLKAKDKEAAERFLKELEEAAKEYAKDEAKTMSEEEAKRRAKKYKEKVLLSELSEEEQKEIKEAFEKLVRTILKYVEEAAK = 12.5 nM

# binder T57P (designed binder) SMEEEVEKAAKEYEKKKKEAIEKHLEKLKAKDKEAAERFLKELEEAAKEYAKDEAKPMSEEEAKRRAKKYKEKVLLSELSEEEQKEIKEAEEKLVRTILKYVEEAAK ; its apparent Kd (screen) = 6.43 nM

// apparent Kd (screen) lookup, binder = A67D (designed binder) SMEEEVEKAAKEYEKKKKEAIEKHLEKLKAKDKEAAERFLKELEEAAKEYAKDEAKTMSEEEAKRRDKKYKEKVLLSELSEEEQKEIKEAEEKLVRTILKYVEEAAK , result: 5.31 nM

response.value for D32I (designed binder) SMEEEVEKAAKEYEKKKKEAIEKHLEKLKAKIKEAAERFLKELEEAAKEYAKDEAKTMSEEEAKRRAKKYKEKVLLSELSEEEQKEIKEAEEKLVRTILKYVEEAAK (field: apparent Kd (screen)) = 4.83 nM

Looking up K33G (designed binder) SMEEEVEKAAKEYEKKKKEAIEKHLEKLKAKDGEAAERFLKELEEAAKEYAKDEAKTMSEEEAKRRAKKYKEKVLLSELSEEEQKEIKEAEEKLVRTILKYVEEAAK , I found its apparent Kd (screen) recorded as 1.16 nM
